METHOD: in vitro
TEST CONTEXT: African green monkey
CC50 vs 1000 µg/mL: less than gives yes; not less than gives no.

Input: CC50 under 1000 µg/mL? Item: CC(C)(O/N=C(\C(=O)N[C@@H]1C(=O)N2C(C(=O)[O-])=C(C[n+]3ccccc3)CS[C@H]12)c1csc(N)n1)C(=O)O [Ceftazidime, ceftazidime, reference compound]
Output: no

Input: CC50 under 1000 µg/mL? Item: Nn1c(Cn2cc(CSc3nc4ccccc4n3Cc3cn(Cc4n[nH]c(=S)n4N)nn3)nn2)n[nH]c1=S
Output: no

Input: CC50 under 1000 µg/mL? Item: Cc1ccc2nc(NC(=O)Cn3cc(CN4C(=O)C(=O)c5ccccc54)nn3)sc2c1
Output: yes

Input: CC50 under 1000 µg/mL? Item: O=C(Cn1cc(CSc2nc3ccccc3n2Cc2cn(CC(=O)NNC(=S)Nc3ccccc3)nn2)nn1)NNC(=S)Nc1ccccc1
Output: no

Input: CC50 under 1000 µg/mL? Item: S=c1[nH]nc(Cn2cc(CSc3nc4ccccc4n3Cc3cn(Cc4n[nH]c(=S)n4-c4ccccc4)nn3)nn2)n1-c1ccccc1
Output: no

Input: CC50 under 1000 µg/mL? Item: O=C(Cn1cc(CSc2nc3ccccc3n2Cc2cn(CC(=O)NNC(=S)Nc3ccc(F)cc3)nn2)nn1)NNC(=S)Nc1ccc(F)cc1
Output: no
